Overview of reported cell number change across a group of compounds:
Method Notes: qHTS Assay for Lipid Storage Modulators in Drosophila S3 Cells;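 on cell number change: cells counted by Cell Tracker Red CMTPX staining in the red channel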
Condition Label: BODIPY lipid droplet fluorescence, 18-24 h, cells fed with added oleic acid; measured here: cell count max response
Screen size: about 320,000 compounds; about 2,100 (0.66%) were called active. Roughly 53% stayed inconclusive and do not appear here. Shown is part of a subset that was picked to be rich in actives.

{"columns": ["Compound", "Result Unit", "cell number change"],
 "data": [
  ["COc1cccc(NC(=O)CCc2nnc3ccc(N4CCN(c5cccc(OC)c5)CC4)nn23)c1", "%", -24.5],
  ["COc1ccc(C(=O)Nc2ccc(NC(=O)c3cccs3)cn2)cc1", "%", 12.4],
  ["COc1ccc(/C=C(/C#N)C(=O)NC2CCCCC2)cc1Br", "%", -11.6],
  ["CC(Sc1cccc(C(F)(F)F)c1)C(=O)NC(N)=O (stereo not drawn)", "%", 10.6],
  ["Cc1ccc(S(=O)(=O)NN2C(=O)c3ccccc3NC2c2ccccc2)cc1 (stereo not drawn)", "%", 14.4],
  ["OCCNCc1cc(Br)ccc1OCc1ccc(F)cc1", "%", -0.637],
  ["O=C1CC(c2ccccc2)CN1S(=O)(=O)c1ccccc1 (stereo not drawn)", "%", -20.2],
  ["CCCCn1nnc(NC(=O)c2sc3cc(Cl)ccc3c2Cl)n1", "%", -11.4],
  ["CCOc1cc(-c2cc(-c3ccc(C)o3)nc(N)c2C#N)ccc1O", "%", -0.884],
  ["CCc1ccc(C(=O)NNC(=O)c2ccc(OCC(=O)N3CCOCC3)c(OC)c2)cc1", "%", -13.6],
  ["CC(=O)Nc1ccc(SC(C)C(=O)NC(N)=O)cc1 (stereo not drawn)", "%", -18.8],
  ["c1ccc(CNc2ccc(CNc3ncn[nH]3)cc2)cc1", "%", 13.8],
  ["CC(=O)Nc1ccc(/C=C(\\C#N)C(=O)NC2CCCCC2)cc1", "%", 6.15]
]}

---

Method Notes: qHTS Assay for Lipid Storage Modulators in Drosophila S3 Cells
Condition Label: BODIPY lipid droplet fluorescence, 18-24 h, cells fed with added oleic acid; series mostly up to 46.1 µM
Hit rate of the full screen: of about 320,000 compounds, about 2,100 (0.66%) were called active. Roughly 53% stayed inconclusive and do not appear here. Calls follow the shape of the dose curve; as a rule, active = well fitted inhibition curve with a large enough effect in the signal ratio, with a control signal flat (not every such curve was filed as active); inconclusive = small, poorly fitted or top-dose-only effect, or effect the other way, or a change in a side signal; inactive = flat fitted curve, though single readings scatter; the % refers to the signal ratio. The sample as a whole holds a higher share of actives than the screen did.
Classes used: active, inactive

{"columns": ["Substance Smiles", "Group"],
 "data": [
  ["COc1cc(OC)c(CN2CCCCCCC2)cc1Br", "active"],
  ["COc1ccc(C(C)=O)cc1COC(=O)CNC(=O)c1ccc(Cl)cc1", "inactive"],
  ["COc1ccc(Br)cc1CN1CCCCCCC1", "inactive"],
  ["CCCCNC(=O)CCn1c(=O)c2cccn2c2ccc(F)cc21", "inactive"],
  ["COc1ccc(C(=O)NCc2nnc(SCC(=O)Nc3cccc(C(F)(F)F)c3)o2)cc1OC", "inactive"],
  ["CCOc1ccc(NC(=O)CSc2nnc(CNC(=O)c3ccco3)o2)cc1", "inactive"]
]}

---

Overview of reported cell number change across a group of compounds:
Method Notes: qHTS Assay for Lipid Storage Modulators in Drosophila S3 Cells;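 on cell number change: cells counted by Cell Tracker Red CMTPX staining in the red channel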
Condition Label: BODIPY lipid droplet fluorescence, 18-24 h, cells fed with added oleic acid; measured here: cell count max response
Screen size: about 320,000 compounds; about 2,100 (0.66%) were called active. Not shown: some 53% with an inconclusive outcome. The sample as a whole holds a higher share of actives than the screen did.
Assay Readout: cell number change

{"columns": ["Compound", "Assay Result"],
 "data": [
  ["COC(=O)c1ccc(-n2c(C)nc(=O)c(-c3ccccc3)c2C)cc1", "0.97%"],
  ["Cc1cc(Cn2nc(C(=O)NCc3cccc(Br)c3)cc2-c2ccccc2)on1", "16.4%"],
  ["CCOC(=O)C1CCN(C(=O)CCCn2nc(CC)n3c(cc4occc43)c2=O)CC1", "-12.6%"],
  ["O=C(CSc1nnc(-c2ccncc2)n1CC1CCCO1)Nc1ccccc1Cl (centres undefined)", "2.31%"],
  ["CCOC(=O)c1cc(C)nc(Sc2ccc(C)cc2)c1C#N", "3.68%"],
  ["Cc1c(OC(C)C(=O)NCC(O)c2ccccc2)ccc2c3c(c(=O)oc12)CCCC3 (centres undefined)", "9.43%"],
  ["COc1ccccc1/C=c1\\sc2nc(-c3ccccc3OC)nn2c1=O", "-6.9%"],
  ["CCc1cc2c(-c3ccccc3)cc(=O)oc2cc1OCC(C)=O", "-1.82%"],
  ["CC(=O)Nc1ccc(-n2c(C)nc(=O)c(-c3ccccc3)c2C)cc1", "13.2%"],
  ["O=S(=O)(c1cccs1)N1CCC(Cc2ccccc2)CC1", "-12%"],
  ["CCCC(=O)Oc1c(S(=O)(=O)c2ccc(C)cc2)c(C)nn1C(C)(C)C", "23.9%"],
  ["CCOC(=O)c1c(NC(=O)COC(=O)c2cc(OC)c(OC)cc2[N+](=O)[O-])sc(C)c1CC", "-0.918%"],
  ["CCOCCCNC(c1ccccc1)c1ccncc1 (centres undefined)", "7.02%"],
  ["Cc1cccc(C)c1OCC(=O)N/N=C/c1ccncc1", "1.08%"],
  ["CC(C)NCCOCCSc1ccc(Cl)cc1", "-7.67%"],
  ["O=C1NCCCC1C(=O)NCCN1C(=O)CCC1=O (centres undefined)", "-2.23%"],
  ["Cc1cccc(-n2ncc3c(=O)[nH]c(SCC(=O)NCCC4=CCCCC4)nc32)c1", "-11%"],
  ["O=C(N/N=C/c1ccco1)C12CC3CC(CC(C3)C1)C2", "-15.4%"],
  ["Cc1ccc[n+](/C(=C\\C(=C=[N-])C#N)C(=O)c2ccc(Cl)cc2)c1", "18.6%"],
  ["Cc1nc(=O)c(-c2ccccc2)c(C)n1-c1ccc(O)cc1", "0.899%"],
  ["Cc1c(OCC(=O)NCC(O)c2ccccc2)ccc2c3c(c(=O)oc12)CCCC3 (centres undefined)", "-19.4%"],
  ["CCc1nn(CCCC(=O)NCc2ccco2)c(=O)c2cc3occc3n12", "-6.49%"],
  ["CCN(CC)C(=O)C1CCN(S(=O)(=O)c2ccc(-n3cnnn3)cc2)CC1", "1.39%"],
  ["Cc1cc(=O)oc2cc(OCC(=O)OCC(=O)N(C)C3CCS(=O)(=O)C3)ccc12 (centres undefined)", "7.81%"]
]}

---

Overview of reported cell number change across a group of compounds:
Method Notes: qHTS Assay for Lipid Storage Modulators in Drosophila S3 Cells;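 on cell number change: cells counted by Cell Tracker Red CMTPX staining in the red channel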
Condition Label: BODIPY lipid droplet fluorescence, 18-24 h, cells fed with added oleic acid; measured here: cell count max response
Screen size: about 320,000 compounds; about 2,100 (0.66%) were called active. Not shown: some 53% with an inconclusive outcome. The sample holds actives, similar compounds and a random draw of the others, so the mix is not that of the screen.
Assay Readout: cell number change (%)

{"columns": ["Compound", "Assay Result"],
 "data": [
  ["Cc1c([N+](=O)[O-])c([N+](=O)[O-])nn1CC(=O)NCCc1ccccc1", 2.95],
  ["Cc1nc2sc3c(c2c(=O)o1)CCCC3", 5.3],
  ["CN1CCN(c2oc(-c3ccco3)nc2S(=O)(=O)c2ccccc2)CC1", 0.475],
  ["O=C(N/C(=C\\c1ccccc1)C(=O)N1CCOCC1)c1ccco1", 1.67],
  ["N#Cc1cccc(NC(=O)COc2ccc(-n3ccnc3)cc2)c1", -13.2],
  ["Cn1c(/C=C/c2ccc(Br)cc2)c([N+](=O)[O-])c(=O)n(C)c1=O", -1.8],
  ["Cc1ccc(N(CC(N)=O)C2SC(=O)NC2=O)cc1 (stereo unspecified)", 8.58],
  ["O=c1cc(NCc2ccco2)[nH]c(=O)n1-c1ccc(Br)cc1", -12.2],
  ["CC(C)c1ccc(/C=C2\\SC(=S)N(CCC(=O)N3CCCCC3CCO)C2=O)cc1 (stereo unspecified)", -22.4],
  ["O=C(CSc1nnc(-c2ccc(F)cc2)o1)NC1CCCCC1", 12],
  ["CC(=O)c1c(C)[nH]c(C(=O)OCC(=O)N2CC(=O)Nc3ccccc32)c1C", 17.6]
]}

---

Overview of reported cell number change across a group of compounds:
Method Notes: qHTS Assay for Lipid Storage Modulators in Drosophila S3 Cells;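 on cell number change: cells counted by Cell Tracker Red CMTPX staining in the red channel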
Condition Label: BODIPY lipid droplet fluorescence, 18-24 h, cells fed with added oleic acid; measured here: cell count max response
Hit rate of the full screen: of about 320,000 compounds, about 2,100 (0.66%) were called active. Inconclusive results (about 53%) are left out. This excerpt belongs to a sample that is enriched for actives.

{"columns": ["Compound", "cell number change [%]"],
 "data": [
  ["O=C(c1cc(=O)c2cc(Cl)ccc2o1)N1CCN(Cc2ccccc2)CC1", 10.7],
  ["O=C(Nc1nc2ccccc2[nH]1)c1ccc(OC(F)F)cc1", -15.1],
  ["Cc1c(N=Cc2ccccn2)c(=O)n(-c2ccccc2)n1C", -11.2],
  ["O=C(CNc1ccc(Br)cc1)c1ccccc1", -10.1],
  ["COc1ccc(/C=N/NC(=O)c2ccncc2)cc1CSc1nc2ccccc2s1", 1.7],
  ["COC(=O)C1=C(C)C(c2cccs2)NC(=O)N1C (stereo unspecified)", 10.6],
  ["CC1Sc2ccc(S(=O)(=O)NCCc3ccccc3)cc2NC1=O (stereo unspecified)", -2.36],
  ["C[C@H]1CN=C2N(CCNC(=O)CCC3CCCCC3)[C@H](Cc3ccc(O)cc3)CN21", -4.68],
  ["COc1ccc(C(C(=O)NC2CCCC2)N(C(=O)c2snc(C(N)=O)c2N)c2cc(C)ccc2OC)cc1OC (stereo unspecified)", -1.28],
  ["CC(NC(=O)CN1c2cccc3cccc(c23)S1(=O)=O)c1ccc(S(N)(=O)=O)cc1 (stereo unspecified)", 20.8],
  ["COc1cccc2cc(C(=O)N3CCN(c4ccc(C)cc4C)CC3)c(=O)oc12", 12.9],
  ["COC(=O)C1=C(C)N(C(C)C)C(=O)C1(NC(=O)C1CCCCC1)C(F)(F)F (stereo unspecified)", 24.5],
  ["CCC(C(=O)NC1CCCC1)N(Cc1ccccc1Cl)C(=O)c1snc(C(N)=O)c1N (stereo unspecified)", -3.04],
  ["CCc1ccc(NC(=O)CN2C(=O)CSC2=O)cc1", -0.41],
  ["COc1ccc(NC(=O)NCCCCc2ccccc2)cc1", -11.6],
  ["CCCSc1ccc(-c2nn(-c3ccccc3)cc2/C=C(/C#N)C(=O)N2CCOCC2)cc1", -5],
  ["O=C(OCCOCCN=C1NS(=O)(=O)c2ccccc21)c1ccc(F)cc1", 13.2],
  ["O=C(N/N=C/C=C/c1ccc([N+](=O)[O-])cc1)C1COc2ccccc2O1 (stereo unspecified)", -22.4],
  ["CC(=O)Nc1nnc(S(=O)(=O)N2CCN(c3ccc([N+](=O)[O-])cc3Cl)CC2)s1", -24.2],
  ["CCC(C(=O)NC(C)(C)C)N(Cc1ccccc1Cl)C(=O)c1snc(C(N)=O)c1N (stereo unspecified)", -22.3],
  ["O=C(CSc1nc2ccc([N+](=O)[O-])cc2[nH]1)NC1CCCC1", 16],
  ["CC(NC(=O)c1ccco1)c1nc(-c2ccccc2)no1 (stereo unspecified)", 24.3],
  ["CCCNC(=O)Cn1c(=O)/c(=C\\c2ccc(-c3cccc([N+](=O)[O-])c3)o2)s/c1=C\\C(=O)C(C)(C)C", 0.916],
  ["Cc1ccsc1-c1nc(CN2CCCC2c2ccc(F)cc2)c(C)o1 (stereo unspecified)", 4.95],
  ["CCC(=O)N/N=C/c1ccc(-c2ccc([N+](=O)[O-])cc2)o1", 3.62],
  ["Cc1ccc(CNC(=O)/C=C/C(=O)O)cc1", 15]
]}
